test system: CAKI-1 renal; test: NCI-60 one-dose screen, 48 h; conditions: 10 µM unless noted
Compounds without any hit were thinned out: in the full panel of roughly 83,000, 20% have a hit. Activity calls are given as the source filed them. Rule for the calls: active = growth percent below 10; inactive = the rest.
Outcomes: class 1 = active, class 0 = inactive

1. C=C1C(=O)O[C@H]2[C@H]1CC/C(Cn1cc(CNC(=O)Cc3cn(C(=O)c4ccc(Cl)cc4)c4ccc(OC)cc34)nn1)=C\CC[C@@]1(C)O[C@@H]21
class 0
2. COc1ccc(CN2CCc3c(Sc4ccccc4)nc(N)nc3C2=O)c(OC)c1
class 0
3. Clc1ccc2c(NC3CCC(NC4CCCCC4)CC3)ccnc2c1 (stereo not drawn)
class 0
4. COc1ccc(-c2nc(N3CCCC3=O)sc2Br)cc1OC
class 0
5. COc1cc(C2NN=C3c4ccccc4CCC32)cc(OC)c1OC (stereo not drawn)
class 0
6. N#Cc1c(-c2ccccc2)nc(SCC(=O)N2CCN(c3ccccc3)CC2)[nH]c1=O
class 0
7. CCOC(=O)c1ccc2c(c1)nc(-c1ccc(OCc3ccccc3)c(OC)c1)n2-c1cc(C(C)(C)C)[nH]n1
class 0
8. COc1ccc(-c2cc(-c3ccccc3)nc(SCCCC(=O)NO)n2)cc1OC
class 1
9. COc1ccc(-c2cnnn2-c2nonc2-n2cccc2)cc1OC
class 0
10. COc1ccc(/C=C(\C#N)c2cc(OC)c3c(c2)OCO3)cc1
class 0
11. CC(C)(C)Nc1c(-c2cccs2)nc2ncccn12
class 0
12. OB(O)c1cccc(-c2nc3ccc4[nH]ncc4c3c3c2CCCC3)c1F
class 1
13. Cc1ccc(CSC(=N)N)cc1C
class 0
14. COc1cc(NCCCCCN)c2ncccc2c1
class 0
15. O=C(CSc1nc2ccccc2[nH]1)c1ccc(N2CCOCC2)cc1
class 0
16. CCCCN(CCCC)C(=N)c1ccnc2ccccc12
class 0
17. COc1ccc(NC(=O)c2c(Nc3ccc(OC)cc3OC)n[nH]c2N)c(OC)c1
class 0
18. N/C(=N\C(N)=N\c1nc2ccccc2s1)c1cccc(Br)c1
class 0
19. O=C(N/N=C/C=C\c1ccccc1)C(=O)N/N=C/C=C/c1ccccc1
class 0
20. COc1cc(NC(=O)SC2=NCCS2)cc(OC)c1
class 0
21. COC(=O)C(Sc1ccc(Cl)cc1)C1SC(=S)N(Cc2ccccc2)C1=O (stereo not drawn)
class 0
22. Cc1cc(C2=NNC(=O)Cc3cc4c(cc32)OCCO4)cc(C)c1N
class 0
23. C=C[C@@H]1C[C@@H]2Cc3c(C)cc(C)cc3N1O2
class 0
24. O=c1cc(Cc2ccc([N+](=O)[O-])cc2)[nH]c(=O)[nH]1
class 0
25. CCCCCCCCCCCCCCCCCCNC(=O)[C@H]1CSC(c2ccc(OC)cc2O)N1 (stereo partly drawn)
class 0
26. Nc1nc(Nc2cc(Cl)cc(Cl)c2)nn1S(=O)(=O)c1ccc2ccccc2c1
class 0
27. CC12CCCC(CC(=O)c3[nH]c4ccccc4c31)C2 (stereo not drawn)
class 0
28. COc1ccc(S(=O)(=O)NCCCNc2nccc(-c3c(-c4cccc([N+](=O)[O-])c4)nc4sccn34)n2)cc1
class 0
29. O=[N+]([O-])c1cccc(-c2nc3sccn3c2-c2ccnc(NCCCNS(=O)(=O)c3ccc(C(F)(F)F)cc3)n2)c1
class 0
30. CC(=O)Oc1cccc(S(=O)(=O)n2cc(C(=O)C(=O)Nc3ccncc3)c3ccccc32)c1
class 0
31. Cc1ccc(-c2nc(C#N)c(S(=O)(=O)n3nc(-c4ccccc4)cc3N)o2)cc1
class 1
32. CN1C(=O)N(C)C2C1NN=c1s/c(=C\c3cccnc3)c(=O)n12 (stereo not drawn)
class 0
33. O=C(NS(=O)(=O)c1ccccc1)n1cc(-c2ccncc2)c(-c2ccc(Cl)c(O)c2)n1
class 0
34. CCN(CC)c1ccc(CNc2ccnc3ccccc23)cc1
class 0
35. COc1cccc(/C=C2\Oc3cc(OCCCN4CCCC4)ccc3C2=O)c1OC
class 0
36. COc1ccc(-n2c(=O)sc3c(Cl)nc(C)nc32)c(OC)c1
class 1
37. Cc1ccc(Cc2c(C=O)nc(N)[nH]c2=O)c2ccccc12
class 0
38. c1ccc(-c2nnc(-c3ccccn3)s2)nc1
class 0
39. Clc1ccccc1-c1nc2ccccc2[nH]1
class 0
40. COc1cc(/C=C/C(=O)c2ccc(Nc3ncnc4cc(OC)c(OC)cc34)cc2)cc(OC)c1
class 0
41. COc1ccc(-c2nc(SCCC(C)C)nc(Nc3ccc(F)c(Cl)c3)c2C#N)cc1
class 0
42. N#Cc1ccc(N2Cc3ccccc3OC3=C2C(=O)c2c(O)ccc(O)c2C3=O)cc1
class 1
43. COc1ccc(Nc2ncccc2C(=O)NCc2cn(Cc3cccc(Oc4ccccc4)c3)nn2)cc1
class 0

All figures here come from PubChem BioAssay (NCI).
